# Assay remarks: yeast display, Sf9 membrane polyspecificity reagent, FACS + sequencing; frameworks hold sequencing errors
Measure: polyreactivity (PSR sort gate)

Examples with their reported polyreactivity (PSR sort gate) follow.
Residue sequence	polyreactivity (PSR sort gate)
QVQHVESGGGLVQAGGSLRLSCAASGRIINTYAMGWYRPAPGKERELVAAISWSGGSTYYADSVKGRFTISRDNAKNTVDLQMNSLKPEDTAVYYCNAAYYGYENLSKRGYWGQGTQVTVSS	high polyreactivity
QVQLVESGGGLVQAGGSLRLSCAASGRIFRYYDMGWYRPAPGKERELVAAINSGGSTKYADSVKGRFTISRDNAKNTVYLQMNSLKPEDTAVYYCAADKARAWGYDYWGQGTQVTVSS	high polyreactivity
QVQLVESGGGLVQAGGTLRLSCAASGSILGGNAMGWYRQAPGKERELVAAITFSGGGTYYADSVKGRFTISRDNAKNTVYLQMNSLKPEDTAVYYCAADKDGYTYEFDYWGQGTQVTVSS	low polyreactivity
QVQLVESGGGLVQAGGSLRLSCAASGFTFFRYAMGWYSQAPGKERELVATITRGGSTNYADSVKGRFTISRDNAKNTVYLQMNSLQPVDTAVYYCNKDKKTPTFDYWGQGTQVTVSS	low polyreactivity
QVQLVESGGGLVQAGGSLRLSCAASGRIFATNAMGWYRPAPGKERELVATITRSAGRTYYADSVKGRFTISRDNAKNTVYLQMNSLKPEDTAVYYCAASYWDTEPGYREYDYWGQGTQVTVSS	low polyreactivity

The sequence listed as QVQLVESGGGLVQAGGSLRLSCAASGRTFGYYAMGWYRQAPGKERELVASISWIGDDTYYADSVKGRFTISRDYAKNTVYLQMNSLKPEDTAVYYCNAVYAGRYFGFDYWGQGTQVTVSS shows polyreactivity (PSR sort gate) equal to high polyreactivity

For record QVQLVESGGGLGQAGGSLRLSCAASGGTFYAYAMGWYRQAPGKEREFVAAISRRGGSTYYADSVKGRFTISRDNAKNTVYLQMHSLKPEDNAVYYCKALYSSSPGAKPWGEYNYWGQGTQVTVSS the listed polyreactivity (PSR sort gate) is high polyreactivity

Just so you know, measured polyreactivity (PSR sort gate) for QVHLVESGGGLVQAGGSLRLSCAASGSTFYLYAMGWYRQATGKERELDASISRSGITTYSDSVKGRFTITRDNAKNNVYLQLNSRNPEDTADYYCAVRYYSASYWYGYDYWGLGTQVTVSS came out at high polyreactivity

The measured polyreactivity (PSR sort gate) associated with QVQLVESGGGLVQAGGSLRLSCAASGHIFFINAMGWYRQAPGKERELVAAIDWSGGSTYYADSVKGRFTISRDNAKNTDYLQMNSLKPADTAVYYCAAELLWDYILYYYWGQGTQVTVSS reads high polyreactivity

# polyreactivity (PSR sort gate) of QVQLVESGGGLVQAGGSLRLSCAASGRIFPPNAMGWYRQAPGKERELVAAITGSGGSTYYADSVKGRFTITRDNAKNTVYLQKNSLKPADTAVYYCAVESLGRVSRGYDYWGQGTQVTVSS = low polyreactivity

Consider QVQLVESGGGLVQAGGSLRLSCAASGSIFKRNAMGWYRQAPGKERELVAAIRVNGGITYYADSVKGRFTISRDNAKNTVFLQMNSLKPEDTSVYYCAVYSRQGLGYWGQGTQVTVSS . Its measured polyreactivity (PSR sort gate) is high polyreactivity
